B1: Hairpin Ribozyme (parent)
chain: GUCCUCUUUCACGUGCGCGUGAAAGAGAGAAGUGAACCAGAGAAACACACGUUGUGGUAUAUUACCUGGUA

- Variants of: B1
- ASSAY_EXPLANATION: self-cleavage, relative activity (ratio to wild type); higher = more cleavage; co-transcriptional
Items are presented alongside their recorded self-cleavage.
EXPERIMENTAL_READOUT: self-cleavage

| VARIANT_CODE | EXPERIMENTAL_READOUT | OBSERVED_RESULT |
| --- | --- | --- |
| G1U A26C | self-cleavage | 0.103 |
| C18U A43U | self-cleavage | 0.102 |
| G13U A47U | self-cleavage | 0.129 |
| U7G A71G | self-cleavage | 1.06 |
| G21C A39G | self-cleavage | 0.225 |
| A49C C66U | self-cleavage | 0.183 |
| G1U G25U | self-cleavage | 0.21 |
| U8A A43G | self-cleavage | 0.13 |
| A22C U53G | self-cleavage | 0.822 |
| G21A C50U | self-cleavage | 0.371 |
| U2G A31G | self-cleavage | 0.281 |
| A45G G56C | self-cleavage | 0.0912 |
